meta.source: ChEMBL document CHEMBL4689842

# System: HEK-293T
# Assay Name: Incucyte cell viability with HEK293T; further: filed as whole numbers so only -1 and 0 and 1 occur
# Assay type: toxicity, cell-based
# Condition Details: human, 12 h, 10 µM, compound concentration 10 uM, replicate number 1, timepoint 12 hours
Reported Growth Rate by item:
Write the value as a bare number.

Identify measured Growth Rate corresponding to O=C(O)c1ccc2c(c1)nc(Nc1cccc(Cl)c1)c1ccncc12
0

Identify measured Growth Rate corresponding to CNc1cc2[nH]c(=O)n(-c3ccc(NC(=O)NS(=O)(=O)c4ccc(Cl)s4)cc3)c(=O)c2cc1F
0

Identify measured Growth Rate corresponding to CCC(=O)N[C@H]1CC[C@@H](C(=O)N(C)c2ccc(-c3nc4ccccc4o3)cc2)C1
0

Identify measured Growth Rate corresponding to CC(=O)[C@@]1(O)CC[C@H]2[C@@H]3C[C@H](C)C4=CC(=O)CC[C@]4(C)[C@H]3CC[C@@]21C
0

Identify measured Growth Rate corresponding to CC(=O)N1CCC(c2ccc(C(=O)NC3=NCCN3)cc2C(F)(F)F)CC1
0

Identify measured Growth Rate corresponding to Cc1cc(C)cc(C(=O)N(C)[C@H](Cc2ccc(-c3ccccc3)cc2)C(=O)N[C@@H](Cc2c[nH]c3ccccc23)C(=O)O)c1
0

Now look at this one.
Identify measured Growth Rate corresponding to CO[C@H]1/C=C/O[C@@]2(C)Oc3c(C)c(O)c4c(O)c(c(/C=N/N5CCN(C)CC5)c(O)c4c3C2=O)NC(=O)/C(C)=C\C=C\[C@H](C)[C@H](O)[C@@H](C)[C@@H](O)[C@@H](C)[C@H](OC(C)=O)[C@@H]1C
1

* * *

# Test system: U2OS
# Assay Name: Multiplex assay against U2OS
# Assay type: toxicity, cell-based
# Condition Details: human, 12 h, 1 µM, compound concentration 1 uM, replicate 1
Reported Population Normal (%) by item:
The figure you give is taken to be in %; do not add the unit.

Here is how some molecules turned out for Population Normal (%).
Identify measured Population Normal (%) corresponding to Cc1cc2c(cc1N1C(=O)c3cccc4c(CCCO)ccc(c34)C1=O)n(C)c(=O)n2C
93

Identify measured Population Normal (%) corresponding to c1ccc2oc(-c3csc(C4CCN(Cc5nc6ncccc6[nH]5)CC4)n3)cc2c1
96

Identify measured Population Normal (%) corresponding to CNC(=O)c1nn(C)c2c1C(C)(C)Cc1cnc(Nc3ccc(N4CCN(C)CC4)cc3)nc1-2
93

Identify measured Population Normal (%) corresponding to CCn1c(-c2nonc2N)nc2cnc(Oc3cccc(NC(=O)c4ccc(OCCN5CCOCC5)cc4)c3)cc21 [GSK-269962A]
87

***
Identify measured Population Normal (%) corresponding to CC(=O)c1cc(-c2cc(C(=O)NC3CC3)ccc2C)c2ncccn12
94

Identify measured Population Normal (%) corresponding to CCc1cc2c(cc1CC)CC(NC[C@H](O)c1ccc(O)c3[nH]c(=O)ccc13)C2
92

Identify measured Population Normal (%) corresponding to Cc1cn(-c2cc(NC(=O)c3ccc4c(c3)CN(c3cncnc3)C[C@@H]4C)cc(C(F)(F)F)c2)cn1
92

Identify measured Population Normal (%) corresponding to CCOc1cc2ncc(C#N)c(Nc3ccc(OCc4cccc(F)c4)c(Cl)c3)c2cc1NC(=O)/C=C/CN(C)C
98

* * *

Reported Growth Rate by item:
# Test system: Fibroblast
# Assay Name: Incucyte cell viability with human fibroblast; further: filed as whole numbers so only -1 and 0 and 1 occur
# Format: toxicity, cell-based
# Condition Details: 24 h, 10 µM, compound concentration 10 uM, replicate number 2, timepoint 24 hours
Write the value as a bare number.

Here is how some compounds turned out for Growth Rate.
Identify measured Growth Rate corresponding to CCCCN(CCCC)C(=O)CN1C[C@@H](c2ccc3c(c2)OCO3)[C@H](C(=O)O)[C@H]1c1ccc(OC)cc1
0

Identify measured Growth Rate corresponding to C[C@@H](NCCc1ccc(O)cc1)[C@@H](O)c1ccc(O)cc1.Cl (relative stereo)
1

Identify measured Growth Rate corresponding to CC1(C)CNc2cc(NC(=O)c3cccnc3NCc3ccncc3)ccc21.O=P(O)(O)O.O=P(O)(O)O [MOTESANIB DIPHOSPHATE]
0

Identify measured Growth Rate corresponding to CCCCN(CCCC)C(=O)CN1C[C@@H](c2cc(OC)c3c(c2)OCO3)[C@H](C(=O)O)[C@H]1CC(C)(C)CCC.Cl
1

Identify measured Growth Rate corresponding to CCCc1cc(C)[nH]c(=O)c1CNC(=O)c1cc(-c2ccnc(N3CCN(C)CC3)c2)cc2c1cnn2C(C)C
0

***
Identify measured Growth Rate corresponding to CCC(=O)N[C@H]1CC[C@@H](C(=O)N(C)c2ccc(-c3nc4ccccc4o3)cc2)C1 [BI 99179]
1

Identify measured Growth Rate corresponding to Cc1cc(SCc2sc(-c3ccc(C(F)(F)F)c(F)c3)nc2C)ccc1OCC(=O)O
0

Identify measured Growth Rate corresponding to CN(C)CC[C@@H](c1ccc(Cl)cc1)c1ccccn1.O=C(O)/C=C\C(=O)O [DEXCHLORPHENIRAMINE MALEATE]
0

* * *

# Test system: HEK-293T
# Assay Name: Multiplex assay against HEK293T;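 on Population Tubulin-Different-Phenotype (%): share of the cells with healthy nuclei that show this phenotype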
# Format: toxicity, cell-based
# Condition Details: human, 24 h, 1 µM, compound concentration 1 uM, replicate 1
Endpoint Label: Population Tubulin-Different-Phenotype (%)
The figure you give is taken to be in %; do not add the unit.

Identify measured Population Tubulin-Different-Phenotype (%) corresponding to Cl.Cl.NC1(c2ccc(-c3nc4ccn5c(=O)[nH]nc5c4cc3-c3ccccc3)cc2)CCC1
38

Identify measured Population Tubulin-Different-Phenotype (%) corresponding to CNC(=O)c1nn(C)c2c1C(C)(C)Cc1cnc(Nc3ccc(N4CCN(C)CC4)cc3)nc1-2
78

Identify measured Population Tubulin-Different-Phenotype (%) corresponding to COc1cc2c(NC3CCN(C(C)C)CC3)nc(N3CCC(F)(F)CC3)nc2cc1OCCCN1CCCC1
51

Identify measured Population Tubulin-Different-Phenotype (%) corresponding to Cc1cn(-c2cc(NC(=O)c3ccc4c(c3)CN(c3cncnc3)C[C@@H]4C)cc(C(F)(F)F)c2)cn1
3

Identify measured Population Tubulin-Different-Phenotype (%) corresponding to CN(C)CCOc1ccc(-c2nc(-c3ccncc3)c(-c3ccc4c(c3)CC/C4=N\O)[nH]2)cc1
48

Identify measured Population Tubulin-Different-Phenotype (%) corresponding to CC(=O)c1cc(-c2cc(C(=O)NC3CC3)ccc2C)c2ncccn12
26

***
Identify measured Population Tubulin-Different-Phenotype (%) corresponding to CCC(=O)O[C@]1(C(=O)SCF)[C@H](C)C[C@H]2[C@@H]3C[C@H](F)C4=CC(=O)C=C[C@]4(C)[C@@]3(F)[C@@H](O)C[C@@]21C [FLUTICASONE PROPIONATE]
40

Identify measured Population Tubulin-Different-Phenotype (%) corresponding to CC(C)Oc1ccc(C(=O)N[C@H](CNC(=O)CN(C)C)Cc2ccc(-c3cn4cccc([C@H](C)O)c4n3)cc2)cc1Cl [GSK-923295A]
23

Identify measured Population Tubulin-Different-Phenotype (%) corresponding to Nc1nc2c(c(N3CCNCC3)n1)CCC1=C2[C@@H]2CCCC[C@@H]2O1
47

Identify measured Population Tubulin-Different-Phenotype (%) corresponding to N#Cc1cnc(Nc2cc(NC[C@H]3CNCCO3)c(C(F)(F)F)cn2)cn1
4

Identify measured Population Tubulin-Different-Phenotype (%) corresponding to CCc1cc2c(cc1CC)CC(NC[C@H](O)c1ccc(O)c3[nH]c(=O)ccc13)C2
43

Identify measured Population Tubulin-Different-Phenotype (%) corresponding to O=C(O)c1ccc2cc(-c3ccc(O)c(C45CC6CC(CC(C6)C4)C5)c3)ccc2c1
24

Identify measured Population Tubulin-Different-Phenotype (%) corresponding to COc1cc(N2CCC(N(C)C)CC2)ccc1Nc1ncc(Cl)c(Nc2ccccc2P(C)(C)=O)n1
14

* * *

# System: HEK-293T
# Assay Name: Multiplex assay against HEK293T
# Assay type: toxicity, cell-based
# Condition Details: human, 24 h, 10 µM, compound concentration 10 uM, replicate 1
Population Mitotic Cells (%) below 50% gives false (0); Population Mitotic Cells (%) at or above it gives true (1).

Past entries and their recorded results:
API: above_or_equal(metric=Population Mitotic Cells (%), cutoff=50%) for item CCn1c(-c2nonc2N)nc2cnc(Oc3cccc(NC(=O)c4ccc(OCCN5CCOCC5)cc4)c3)cc21 [GSK-269962A]
false (0)

API: above_or_equal(metric=Population Mitotic Cells (%), cutoff=50%) for item N#Cc1cnc(Nc2cc(NC[C@H]3CNCCO3)c(C(F)(F)F)cn2)cn1
true (1)

API: above_or_equal(metric=Population Mitotic Cells (%), cutoff=50%) for item CC(C)N1CCC(C)(C)c2cc(C#Cc3ccc(C(=O)O)cc3)ccc21
true (1)

API: above_or_equal(metric=Population Mitotic Cells (%), cutoff=50%) for item Cc1nc(Cc2cccc(C(F)(F)F)c2)sc1-c1ccc(C(N)=O)nc1 [TP-024n]
false (0)

API: above_or_equal(metric=Population Mitotic Cells (%), cutoff=50%) for item CNc1oc(-c2cccc3ccccc23)nc1C#N
true (1)

***
API: above_or_equal(metric=Population Mitotic Cells (%), cutoff=50%) for item Cc1cn(-c2cc(NC(=O)c3ccc4c(c3)CN(c3cncnc3)C[C@@H]4C)cc(C(F)(F)F)c2)cn1
true (1)

API: above_or_equal(metric=Population Mitotic Cells (%), cutoff=50%) for item COc1cc2c(NC3CCN(C(C)C)CC3)nc(N3CCC(F)(F)CC3)nc2cc1OCCCN1CCCC1
false (0)

API: above_or_equal(metric=Population Mitotic Cells (%), cutoff=50%) for item Nc1nc2c(c(N3CCNCC3)n1)CCC1=C2[C@@H]2CCCC[C@@H]2O1
false (0)

API: above_or_equal(metric=Population Mitotic Cells (%), cutoff=50%) for item c1ccc2oc(-c3csc(C4CCN(Cc5nc6ncccc6[nH]5)CC4)n3)cc2c1
true (1)
